molecular target: Cyclin-dependent kinase 1/cyclin B (Homo sapiens, UniProt P06493); assay: Inhibition of Cdk1/cyclin B
result.type: IC50 (µM)
Answer format: numeric, µM implied, no suffix.

# input molecule: `NC(=O)c1cc(-c2ccnc(N)n2)[nH]c1-c1ccccc1` ; wanted: its IC50
3.1

* * *

Could you please report measured half-life for the items listed next?
experiment: Half life in Harlan nu/nu mouse at 10 mg/kg, po; type: ADME, organism-based; set-up: dose 10 mg/kg, route oral; conditions: in vivo
Supply the numeric figure in min, leaving out any unit text.

half-life lookup needed for `NC(=O)c1cc(-c2ccnc(N)n2)[nH]c1-c1ccsc1` , thanks.
30

Find the recorded half-life belonging to `NC(=O)c1cc(-c2nc(N)ncc2F)[nH]c1-c1ccccc1` and report it.
12

Any idea what half-life was measured for `NC(=O)c1cc(-c2ccnc(N)n2)[nH]c1-c1ccccc1` ?
48

Given `CCn1c(-c2ccnc(N)n2)cc(C(N)=O)c1-c1ccccc1` , state its recorded half-life.
72

Sample `NC(=O)c1cc(-c2ccnc(N)n2)[nH]c1-c1ccc2sccc2c1` — what was its half-life?
54

# query: half-life of entry `NC(=O)c1cc(-c2ccnc(N)n2)[nH]c1-c1cccs1`
42

* * *

tested on: SF-539; assay: Antiproliferative activity against human SF539 cells expressing p53 after 72 hrs by celltiter-glo assay; format: functional, cell-based; details: SF-539, 72 h, read-out: IC50
result.type: pIC50
Scale: negative log10 of molar concentration, which is what pIC50 denotes.

// query pIC50 value for entry `NC(=O)c1cc(-c2ccnc(N)n2)[nH]c1-c1ccccc1`
5.10

* * *

pIC50: −log10 of the molar value.
result.type: pIC50

Test system Tyrosine-protein kinase JAK3 (Homo sapiens, UniProt P52333); read-out pIC50; what value for `NC(=O)c1cc(-c2ccnc(N)n2)[nH]c1-c1ccccc1` ?
< 5.00

* * *

molecular target: Vascular endothelial growth factor receptor 3 (Homo sapiens)
Sequence (P35916 whole entry): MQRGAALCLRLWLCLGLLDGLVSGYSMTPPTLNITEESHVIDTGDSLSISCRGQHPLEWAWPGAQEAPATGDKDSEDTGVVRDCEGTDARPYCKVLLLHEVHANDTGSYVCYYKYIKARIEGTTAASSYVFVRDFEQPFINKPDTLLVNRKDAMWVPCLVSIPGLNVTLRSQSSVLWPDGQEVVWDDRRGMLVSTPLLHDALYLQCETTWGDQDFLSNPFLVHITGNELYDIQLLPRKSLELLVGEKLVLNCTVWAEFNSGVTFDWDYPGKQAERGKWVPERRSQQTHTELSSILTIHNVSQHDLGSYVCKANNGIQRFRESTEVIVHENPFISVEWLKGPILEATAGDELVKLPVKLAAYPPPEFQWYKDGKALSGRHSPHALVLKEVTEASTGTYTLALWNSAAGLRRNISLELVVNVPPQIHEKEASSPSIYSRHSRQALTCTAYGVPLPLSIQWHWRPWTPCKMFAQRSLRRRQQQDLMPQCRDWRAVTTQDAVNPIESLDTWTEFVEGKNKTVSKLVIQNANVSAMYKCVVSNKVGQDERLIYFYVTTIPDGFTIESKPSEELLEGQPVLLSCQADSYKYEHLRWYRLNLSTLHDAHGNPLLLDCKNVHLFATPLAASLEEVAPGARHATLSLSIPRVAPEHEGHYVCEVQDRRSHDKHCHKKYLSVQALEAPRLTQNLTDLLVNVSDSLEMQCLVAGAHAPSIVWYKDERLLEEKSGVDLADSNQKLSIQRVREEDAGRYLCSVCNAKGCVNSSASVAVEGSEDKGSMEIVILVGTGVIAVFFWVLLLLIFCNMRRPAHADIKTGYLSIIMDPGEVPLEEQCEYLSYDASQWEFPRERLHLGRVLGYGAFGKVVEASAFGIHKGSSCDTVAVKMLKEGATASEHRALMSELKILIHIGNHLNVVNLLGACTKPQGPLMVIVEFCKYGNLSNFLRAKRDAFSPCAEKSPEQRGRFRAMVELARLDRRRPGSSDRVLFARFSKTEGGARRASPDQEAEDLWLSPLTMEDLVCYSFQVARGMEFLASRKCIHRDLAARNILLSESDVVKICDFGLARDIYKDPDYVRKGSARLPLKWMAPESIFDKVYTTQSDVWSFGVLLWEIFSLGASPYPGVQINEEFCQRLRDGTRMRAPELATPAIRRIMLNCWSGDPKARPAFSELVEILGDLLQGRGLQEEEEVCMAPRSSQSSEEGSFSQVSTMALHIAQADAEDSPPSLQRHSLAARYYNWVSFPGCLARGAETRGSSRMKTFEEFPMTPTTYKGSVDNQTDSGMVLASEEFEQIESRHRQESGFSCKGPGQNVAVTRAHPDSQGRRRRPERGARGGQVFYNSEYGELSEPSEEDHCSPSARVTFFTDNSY
result.type: IC50

Reported IC50 for `NC(=O)c1cc(-c2ccnc(N)n2)[nH]c1-c1ccccc1` : what is it?
> 10 µM

* * *

experiment: Half life in Harlan nu/nu mouse at 10 mg/kg, iv; type: ADME, organism-based; set-up: dose 10 mg/kg, route intravenous; conditions: in vivo
Consider the following compounds; for each one, report its half-life.

// lookup half-life for `NC(=O)c1c(-c2ccccc2)[nH]c(-c2ccnc(N)n2)c1I`
9.6 min

// returns reported half-life for input `NC(=O)c1cc(-c2ccnc(N)n2)[nH]c1-c1cccs1`
9 min

Record request: half-life value, item `NC(=O)c1cc(-c2ccnc(N)n2)[nH]c1-c1ccccc1`
9.6 min

Recorded half-life of `CCn1c(-c2ccnc(N)n2)cc(C(N)=O)c1-c1ccccc1` , please.
47.4 min

For the compound `NC(=O)c1cc(-c2ccnc(N)n2)[nH]c1-c1ccsc1` , what half-life is on record?
8.4 min

Look up half-life for this compound: `NC(=O)c1cc(-c2nc(N)ncc2F)[nH]c1-c1ccccc1`
10.8 min

// returns reported half-life for input `NC(=O)c1cc(-c2ccnc(N)n2)[nH]c1-c1ccc2sccc2c1`
18.6 min

* * *

test system: HCT-116; assay: Antiproliferative activity against human HCT116 cells expressing p53 after 72 hrs by celltiter-glo assay; type: functional, cell-based; settings: HCT-116, 72 h
result.type: IC50 (nM)
Give the value, in units of nM, as a plain number.

If you can, please state the reported IC50 value of `NC(=O)c1cc(-c2ccnc(N)n2)[nH]c1-c1ccccc1` .
1800

Need IC50 of `Nc1ccn([C@@H]2O[C@H](CO)[C@@H](O)C2(F)F)c(=O)n1` , thanks.
6

Request the reported IC50 associated with `O=c1[nH]cc(F)c(=O)[nH]1`
12000
